assay: Hydrophobicity: retention time during reverse phase HPLC; assay type: physicochemical; settings: Acquity CSH C18; pH 7.2 buffer/CH3CN gradient; 40° C.
*: point of attachment. Lauroyl = CCCCCCCCCCCC(=O)*
# if measured RT (retention time during reverse phase HPLC as a measure of hydrophobicity) < 6 min: Satisfied  # else: Not satisfied

Query: Please determine if N-dodecanoyl-Ala-Asp-Pro-Tyr-OH (Lauroyl-ADPY-OH; SMILES CCCCCCCCCCCC(=O)N[C@@H](C)C(=O)N[C@@H](CC(=O)O)C(=O)N1CCC[C@H]1C(=O)N[C@@H](Cc1ccc(O)cc1)C(=O)O) [Example 75] is below 6 min in terms of RT (retention time during reverse phase HPLC as a measure of hydrophobicity).
Reply: Satisfied

Query: Just wondering, is RT (retention time during reverse phase HPLC as a measure of hydrophobicity) of N-dodecanoyl-Ala-Ser-Pro-Tyr-OH (Lauroyl-ASPY-OH; SMILES CCCCCCCCCCCC(=O)N[C@@H](C)C(=O)N[C@@H](CO)C(=O)N1CCC[C@H]1C(=O)N[C@@H](Cc1ccc(O)cc1)C(=O)O) [Example 86] below 6 min?
Reply: Satisfied

Query: Identify whether the substance N-dodecanoyl-γGlu-Pro-Tyr-OH [Example 100] records RT (retention time during reverse phase HPLC as a measure of hydrophobicity) below 6 min.
Reply: Satisfied

Query: Identify whether the substance N-dodecanoyl-Leu-Ala-Pro-Tyr-OH (Lauroyl-LAPY-OH; SMILES CCCCCCCCCCCC(=O)N[C@@H](CC(C)C)C(=O)N[C@@H](C)C(=O)N1CCC[C@H]1C(=O)N[C@@H](Cc1ccc(O)cc1)C(=O)O) [Example 43] records RT (retention time during reverse phase HPLC as a measure of hydrophobicity) below 6 min.
Reply: Not satisfied

Query: RT (retention time during reverse phase HPLC as a measure of hydrophobicity) strictly < 6 min for this substance? N-tetradecanoyl-βAla-βAla-βAla-βAla-Pro-Phe-OH [Example 137]
Reply: Not satisfied

###

assay: Stability of N-terminally acylated peptides or oligopeptides in GI juice; type: in vitro ADME; settings: male, Sprague Dawley, rat GI juice (jejunum extract), pH 6.5; degradation of the compound itself in jejunum extract from rat; read-out: t 1/2 in rat GI juice
Non-standard residues stand in square brackets, D forms with d. Residues, ends and D or L forms follow the SMILES beside them. *: point of attachment. Lauroyl = CCCCCCCCCCCC(=O)*
measured_quantity: half-life at 1 mM

Query: Quick one: half-life at 1 mM for CCCCCCCCCCCC(=O)N[C@H](C)C(=O)N[C@H](C)C(=O)N1CCC[C@@H]1C(=O)N[C@H](Cc1ccccc1)C(=O)O [Example 1, N-dodecanoyl-DAla-DAla-DPro-DPhe-OH] (Lauroyl-[dA][dA][dP][dF]-OH) ?
Reply: > 16.7 h

###

Test: Hydrophobicity: retention time during reverse phase HPLC
Format: physicochemical
Conditions: Acquity CSH C18; pH 7.2 buffer/CH3CN gradient; 40° C.
Description: The retention time (RT) during reverse phase HPLC was taken as a measure of hydrophobicity of an N-terminally modified peptide or oligopeptide of the invention, where the connection is: The longer the RT, the more hydrophobic N-terminally modified peptide or oligopeptide. The following running conditions were applied during HPLC analysis: Buffer B: 70% (v/v) aq. CH3CN
*: point of attachment. Lauroyl = CCCCCCCCCCCC(=O)*; Decanoyl = CCCCCCCCCC(=O)*
measured_quantity: RT (retention time during reverse phase HPLC as a measure of hydrophobicity)
Give the value; after it, write the unit.

Query: Form field: reported RT (retention time during reverse phase HPLC as a measure of hydrophobicity) of N-dodecanoyl-Ala-Ala-Gln-Tyr-OH (Lauroyl-AAQY-OH; SMILES CCCCCCCCCCCC(=O)N[C@@H](C)C(=O)N[C@@H](C)C(=O)N[C@@H](CCC(N)=O)C(=O)N[C@@H](Cc1ccc(O)cc1)C(=O)O) [Example 61]
Reply: 8.28 min

Query: Can you share its RT (retention time during reverse phase HPLC as a measure of hydrophobicity)? I mean this substance: N-dodecanoyl-γGlu-γGlu-Ala-Ala-Pro-Tyr-OH [Example 99]
Reply: 3.41 min

Query: May I ask what RT (retention time during reverse phase HPLC as a measure of hydrophobicity) has been recorded for N-dodecanoyl-Asn-Ala-Ala-Pro-Tyr-OH [Example 93] ?
Reply: 4.84 min

Query: What does the data say about its RT (retention time during reverse phase HPLC as a measure of hydrophobicity)? Entry: N-dodecanoyl-Ala-Ala-Pro-Tyr-OH [Example 69] (Lauroyl-AAPY-OH; SMILES CCCCCCCCCCCC(=O)N[C@@H](C)C(=O)N[C@@H](C)C(=O)N1CCC[C@H]1C(=O)N[C@@H](Cc1ccc(O)cc1)C(=O)O)
Reply: 5.79 min

Query: Give the measured RT (retention time during reverse phase HPLC as a measure of hydrophobicity) of N-decanoyl-Ala-Ala-Pro-Arg-OH (Decanoyl-AAPR-OH; SMILES CCCCCCCCCC(=O)N[C@@H](C)C(=O)N[C@@H](C)C(=O)N1CCC[C@H]1C(=O)N[C@@H](CCCNC(=N)N)C(=O)O) [Example 20] .
Reply: 3.79 min

Query: Item N-dodecanoyl-Ala-Asn-Pro-Tyr-OH (Lauroyl-ANPY-OH; SMILES CCCCCCCCCCCC(=O)N[C@@H](C)C(=O)N[C@@H](CC(N)=O)C(=O)N1CCC[C@H]1C(=O)N[C@@H](Cc1ccc(O)cc1)C(=O)O) [Example 74] has what recorded RT (retention time during reverse phase HPLC as a measure of hydrophobicity)?
Reply: 5.27 min

Query: # query: RT (retention time during reverse phase HPLC as a measure of hydrophobicity) of entry N-dodecanoyl-Ala-Leu-Pro-Tyr-OH (Lauroyl-ALPY-OH; SMILES CCCCCCCCCCCC(=O)N[C@@H](C)C(=O)N[C@@H](CC(C)C)C(=O)N1CCC[C@H]1C(=O)N[C@@H](Cc1ccc(O)cc1)C(=O)O) [Example 81]
Reply: 7.38 min

Query: Which measured RT (retention time during reverse phase HPLC as a measure of hydrophobicity) value corresponds to N-dodecanoyl-Ala-Tyr-Pro-Tyr-OH (Lauroyl-AYPY-OH; SMILES CCCCCCCCCCCC(=O)N[C@@H](C)C(=O)N[C@@H](Cc1ccc(O)cc1)C(=O)N1CCC[C@H]1C(=O)N[C@@H](Cc1ccc(O)cc1)C(=O)O) [Example 89] ?
Reply: 6.23 min

Query: I am curious: what RT (retention time during reverse phase HPLC as a measure of hydrophobicity) value has been reported for N-dodecanoyl-Ser-Pro-Tyr-OH [Example 107] ?
Reply: 5.58 min
